- experimental target: MAGI2_2, Q86UL8
- Sequence (Q86UL8 410-522): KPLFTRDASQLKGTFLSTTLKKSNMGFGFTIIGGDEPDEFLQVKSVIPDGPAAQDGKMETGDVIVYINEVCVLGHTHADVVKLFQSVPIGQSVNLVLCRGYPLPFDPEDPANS
- test description: holdup assay
- Parameters: key: below the threshold = too weak to quantify, mostly under pKd 3.1 to 4
- test context: plain residues with an end cap or a label only (N-terminal biotin on a linker: ado-ado)
readout label: pKd

Solved entries (count: 8):
Entry under review: PGKKPEDSRV [SLCO2B1, O94956] . Reported pKd? 3.64

Entry under review: RDYTQSSSSL [GRM5, P41594] . Reported pKd? below the threshold

Entry under review: FLVTEFNVML [DFNB31, Q9P202] . Reported pKd? below the threshold

Entry under review: LPPPESESKV [KCNJ9, Q92806] . Reported pKd? below the threshold

Entry under review: IKLETKKTKL [SLC15A2, Q16348] . Reported pKd? 3.47

Entry under review: AKADAQESRL [PLCB2, Q00722] . Reported pKd? below the threshold

Entry under review: PSDSVGKDVF [EGLN1, Q9GZT9] . Reported pKd? below the threshold

Entry under review: GNDPDRGTSI [GRID2, O43424] . Reported pKd? below the threshold

***
Entry under review: NISARRFTLC [FAM167B, Q9BTA0] . Reported pKd? 4.76
